assay: activity coefficient (dimensionless); of the first substance listed, at infinite dilution; xn = mol fraction of the nth substance listed; conditions: 368.15 K; 101.33 kPa; Liquid; Chromatography; x1 = 0
Below, each of the compounds is paired with its reported activity coefficient value.
Enter the number alone.

compound	recorded number
C=CCCCC [hex-1-ene] + CCCCCCCCCCCC[N+](C)(C)CCOc1ccccc1.N#C[N-]C#N	3.9
CCCC(C)=O [pentan-2-one] + CCCCCCCCCCCC[N+](C)(C)CCOc1ccccc1.N#C[N-]C#N	1.04
CCCC=O [butanal] + CCCCCCCCCCCC[N+](C)(C)CCOc1ccccc1.N#C[N-]C#N	0.816
C1CCOC1 [tetrahydrofuran] + CCCCCCCCCCCC[N+](C)(C)CCOc1ccccc1.O=S(=O)([N-]S(=O)(=O)C(F)(F)F)C(F)(F)F	0.502
C=Cc1ccccc1 [styrene] + CCCCCCCCCCCC[N+](C)(C)CCOc1ccccc1.O=S(=O)([N-]S(=O)(=O)C(F)(F)F)C(F)(F)F	0.83

// returns reported activity coefficient for input CCC(C)O (configuration not stated) [butan-2-ol] + CCCCCCCCCCCC[N+](C)(C)CCOc1ccccc1.O=S(=O)([N-]S(=O)(=O)C(F)(F)F)C(F)(F)F
1.1

// returns reported activity coefficient for input CCC(C)(C)C [2,2-dimethylbutane] + CCCCCCCCCCCC[N+](C)(C)CCOc1ccccc1.O=S(=O)([N-]S(=O)(=O)C(F)(F)F)C(F)(F)F
3.24

---

assay: activity coefficient (dimensionless); of the first substance listed, at infinite dilution; xn = mol fraction of the nth substance listed; settings: 348.15 K; 101.33 kPa; Liquid; Chromatography; x1 = 0
Below, each of the molecules is paired with its reported activity coefficient value.
Enter the number alone.

# count of solved cases: 6
molecule	activity coefficient
CC(C)OC(C)C [diisopropyl ether] + CCCCCCCCCCCC[N+](C)(C)CCOc1ccccc1.N#C[N-]C#N	4.22
C#CCCC [1-pentyne] + CCCCCCCCCCCC[N+](C)(C)CCOc1ccccc1.N#C[N-]C#N	1.6
C=C(C)c1ccccc1 [(1-methylethenyl)benzene] + CCCCCCCCCCCC[N+](C)(C)CCOc1ccccc1.N#C[N-]C#N	1.25
C#CCCCC [1-hexyne] + CCCCCCCCCCCC[N+](C)(C)CCOc1ccccc1.O=S(=O)([N-]S(=O)(=O)C(F)(F)F)C(F)(F)F	1.45
CC(C)c1ccccc1 [isopropylbenzene] + CCCCCCCCCCCC[N+](C)(C)CCOc1ccccc1.O=S(=O)([N-]S(=O)(=O)C(F)(F)F)C(F)(F)F	1.29
CO [methanol] + CCCCCCCCCCCC[N+](C)(C)CCOc1ccccc1.N#C[N-]C#N	0.332

As a next step, examine the molecule that follows.
// returns reported activity coefficient for input C1CCCCCCC1 [cyclooctane] + CCCCCCCCCCCC[N+](C)(C)CCOc1ccccc1.O=S(=O)([N-]S(=O)(=O)C(F)(F)F)C(F)(F)F
2.68

---

test: activity coefficient (dimensionless); of the first substance listed, at infinite dilution; xn = mol fraction of the nth substance listed; details: 348.15 K; 101.33 kPa; Liquid; Chromatography; x1 = 0
Classification field: enter true for activity coefficient values not below 1, false for values below it.

Worked set:
compound	class label
C1=CCCCC1 [cyclohexene] + CCCCCCCCCCCC[N+](C)(C)CCOc1ccccc1.O=S(=O)([N-]S(=O)(=O)C(F)(F)F)C(F)(F)F	true
CC(C)CC(C)(C)C [2,2,4-trimethylpentane] + CCCCCCCCCCCC[N+](C)(C)CCOc1ccccc1.N#C[N-]C#N	true
CCc1ccccc1 [ethylbenzene] + CCCCCCCCCCCC[N+](C)(C)CCOc1ccccc1.O=S(=O)([N-]S(=O)(=O)C(F)(F)F)C(F)(F)F	true
CCCCCO [pentan-1-ol] + CCCCCCCCCCCC[N+](C)(C)CCOc1ccccc1.O=S(=O)([N-]S(=O)(=O)C(F)(F)F)C(F)(F)F	true

Test whether the compound C1CCOC1 [tetrahydrofuran] + CCCCCCCCCCCC[N+](C)(C)CCOc1ccccc1.N#C[N-]C#N records activity coefficient of 1 or higher.
false

Test whether the compound C=C(C)c1ccccc1 [(1-methylethenyl)benzene] + CCCCCCCCCCCC[N+](C)(C)CCOc1ccccc1.O=S(=O)([N-]S(=O)(=O)C(F)(F)F)C(F)(F)F records activity coefficient of 1 or higher.
false

---

assay: activity coefficient (dimensionless); of the first substance listed, at infinite dilution; xn = mol fraction of the nth substance listed; details: 348.15 K; 101.33 kPa; Liquid; Chromatography; x1 = 0
Below, each of the compounds is paired with its reported activity coefficient value.
Enter the number alone.

# count of solved cases: 5
compound	recorded number
CCCCCCCCC [nonane] + CCCCCCCCCCCC[N+](C)(C)CCOc1ccccc1.O=S(=O)([N-]S(=O)(=O)C(F)(F)F)C(F)(F)F	5.03
CCCCCCCC [octane] + CCCCCCCCCCCC[N+](C)(C)CCOc1ccccc1.O=S(=O)([N-]S(=O)(=O)C(F)(F)F)C(F)(F)F	4.32
CC(C)CC(C)(C)C [2,2,4-trimethylpentane] + CCCCCCCCCCCC[N+](C)(C)CCOc1ccccc1.O=S(=O)([N-]S(=O)(=O)C(F)(F)F)C(F)(F)F	3.82
CCOC(C)=O [ethyl acetate] + CCCCCCCCCCCC[N+](C)(C)CCOc1ccccc1.O=S(=O)([N-]S(=O)(=O)C(F)(F)F)C(F)(F)F	0.592
CCOC(C)(C)C [2-ethoxy-2-methylpropane] + CCCCCCCCCCCC[N+](C)(C)CCOc1ccccc1.N#C[N-]C#N	3.82

// returns reported activity coefficient for input Cc1ccc(C)cc1 [1,4-dimethylbenzene] + CCCCCCCCCCCC[N+](C)(C)CCOc1ccccc1.N#C[N-]C#N
1.5

---

test: activity coefficient (dimensionless); of the first substance listed, at infinite dilution; xn = mol fraction of the nth substance listed; conditions: 368.15 K; 101.33 kPa; Liquid; Chromatography; x1 = 0
Below, each of the molecules is paired with its reported activity coefficient value.
Enter the number alone.

# count of solved cases: 3
molecule	measured property	recorded number
CC(C)=O [acetone] + CCCCCCCCCCCC[N+](C)(C)CCOc1ccccc1.O=S(=O)([N-]S(=O)(=O)C(F)(F)F)C(F)(F)F	activity coefficient	0.445
CCOC(C)=O [ethyl acetate] + CCCCCCCCCCCC[N+](C)(C)CCOc1ccccc1.N#C[N-]C#N	activity coefficient	1.34
C#CCCCC [1-hexyne] + CCCCCCCCCCCC[N+](C)(C)CCOc1ccccc1.N#C[N-]C#N	activity coefficient	1.95

As a next step, examine the molecule that follows.
// returns reported activity coefficient for input C=CCCCCCCCC [1-decene] + CCCCCCCCCCCC[N+](C)(C)CCOc1ccccc1.N#C[N-]C#N
7.14

---

assay: activity coefficient (dimensionless); of the first substance listed, at infinite dilution; xn = mol fraction of the nth substance listed; details: 368.15 K; 101.33 kPa; Liquid; Chromatography; x1 = 0
Below, each of the molecules is paired with its reported activity coefficient value.
Enter the number alone.

molecule	measured property	recorded number
CCC(=O)CC [pentan-3-one] + CCCCCCCCCCCC[N+](C)(C)CCOc1ccccc1.N#C[N-]C#N	activity coefficient	1.05
CC(C)CO [2-methyl-1-propanol] + CCCCCCCCCCCC[N+](C)(C)CCOc1ccccc1.N#C[N-]C#N	activity coefficient	0.486
CCOC(C)(C)C [2-ethoxy-2-methylpropane] + CCCCCCCCCCCC[N+](C)(C)CCOc1ccccc1.N#C[N-]C#N	activity coefficient	3.97
CCCCCC [hexane] + CCCCCCCCCCCC[N+](C)(C)CCOc1ccccc1.N#C[N-]C#N	activity coefficient	5.53
Cc1cccc(C)c1 [1,3-dimethylbenzene] + CCCCCCCCCCCC[N+](C)(C)CCOc1ccccc1.O=S(=O)([N-]S(=O)(=O)C(F)(F)F)C(F)(F)F	activity coefficient	1.12

// returns reported activity coefficient for input CC1CCCCC1 [methylcyclohexane] + CCCCCCCCCCCC[N+](C)(C)CCOc1ccccc1.N#C[N-]C#N
3.9

// returns reported activity coefficient for input C=CCCCCCC [oct-1-ene] + CCCCCCCCCCCC[N+](C)(C)CCOc1ccccc1.O=S(=O)([N-]S(=O)(=O)C(F)(F)F)C(F)(F)F
3.39

---

assay: activity coefficient (dimensionless); of the first substance listed, at infinite dilution; xn = mol fraction of the nth substance listed; conditions: 358.15 K; 101.33 kPa; Liquid; Chromatography; x1 = 0
measured property: activity coefficient
Enter the number alone.

# count of solved cases: 3
molecule	activity coefficient
CCOCC [diethyl ether] + CCCCCCCCCCCC[N+](C)(C)CCOc1ccccc1.O=S(=O)([N-]S(=O)(=O)C(F)(F)F)C(F)(F)F	1.3
C1CCCCC1 [cyclohexane] + CCCCCCCCCCCC[N+](C)(C)CCOc1ccccc1.O=S(=O)([N-]S(=O)(=O)C(F)(F)F)C(F)(F)F	2.13
CO [methanol] + CCCCCCCCCCCC[N+](C)(C)CCOc1ccccc1.N#C[N-]C#N	0.339

As a next step, examine the molecule that follows.
// returns reported activity coefficient for input C#CCCCC [1-hexyne] + CCCCCCCCCCCC[N+](C)(C)CCOc1ccccc1.N#C[N-]C#N
1.88
